Taken from paper PMC8037182.

SYSTEM UNDER TEST: Eg5 motor protein (Homo sapiens)
Construct: Eg5 motor domain (amino acids 1-368) was cloned into pET22b; His-tag (C); made in house; host or cells: Escherichia coli BL21 (DE3)
Sequence (P52732 1-368): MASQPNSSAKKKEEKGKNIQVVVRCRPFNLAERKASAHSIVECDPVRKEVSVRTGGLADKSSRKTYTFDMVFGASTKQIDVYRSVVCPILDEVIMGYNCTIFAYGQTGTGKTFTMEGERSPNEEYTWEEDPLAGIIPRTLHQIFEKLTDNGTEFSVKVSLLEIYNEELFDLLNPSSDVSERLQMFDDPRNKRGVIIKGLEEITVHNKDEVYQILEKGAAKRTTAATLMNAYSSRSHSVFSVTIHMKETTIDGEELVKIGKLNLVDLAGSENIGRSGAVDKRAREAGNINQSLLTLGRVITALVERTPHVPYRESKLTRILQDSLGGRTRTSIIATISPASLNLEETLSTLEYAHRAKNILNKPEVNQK
PROCEDURE TEXT: microtubule-activated Eg5 motor protein ATPase assay (malachite green, OD630)
Type: biochemical
RUN PARAMETERS: compound 90.91 uM
READOUT: OD630 Value Mean
// no unit, no text: just the number

Some entries whose results are on file:
COMPOUND: CCOc1ccccc1C1NC(=S)NC(C)=C1C(=O)Nc1ccc(Cl)cc1 (stereo not shown)
OD630 Value Mean: 0.156
--
COMPOUND: CCOC(=O)c1[nH]c(C2NC(=S)NC(C)=C2C(=O)OC)c(C(=O)OCC)c1C (stereo not shown)
OD630 Value Mean: 0.129
--
COMPOUND: CCOC(=O)c1[nH]c(C2NC(=O)NC(C)=C2C(=O)Nc2ccc(Cl)cc2)c(C(=O)OCC)c1C (stereo not shown)
OD630 Value Mean: 0.158

Task: Please give the measured OD630 Value Mean for this compound: CCOC(=O)c1[nH]c(C2NC(=O)NC(C)=C2C(=O)Nc2ccccc2C)c(C(=O)OC)c1C (stereo not shown)
Output: 0.148

Task: Please give the measured OD630 Value Mean for this compound: CCOC(=O)c1[nH]c(C2NC(=O)NC(C)=C2C(=O)Nc2ccccc2OC)c(C(=O)OC)c1C (stereo not shown)
Output: 0.122

Task: Please give the measured OD630 Value Mean for this compound: COC(=O)c1[nH]c(C2NC(=S)NC(C)=C2C(=O)c2ccccc2)c(C(=O)OC)c1C (stereo not shown)
Output: 0.138

Task: Please give the measured OD630 Value Mean for this compound: CCOC(=O)c1c(C2NC(=O)NC(C)=C2C(=O)Nc2ccccc2)[nH]c(C(=O)OC)c1C (stereo not shown)
Output: 0.191

---

System: Caco-2 cell line
PROCEDURE TEXT: Cytotoxicity MTS assay, Caco-2 cell line
Format: cell-based
RUN PARAMETERS: Homo sapiens, Caco-2; MTS assay, 24 h exposure
# IC50 listing for each entry below
Only the number, expressed in µM, is required.

COMPOUND: CCOc1ccccc1C1NC(=S)NC(C)=C1C(=O)Nc1ccc(Cl)cc1 (centres unmarked)
READOUT: IC50
VALUE MEASURED: 65.8

Okay, next one:
Task: Please give the measured IC50 for this compound: CCOC(=O)C1=C(C)NC(=S)NC1c1cccc(O)c1 (centres unmarked) [Monastrol, monastrol, reference compound]
Output: 112

---

System: L929 cell line
PROCEDURE TEXT: Cytotoxicity MTS assay, L929 cell line
Type: cell-based
RUN PARAMETERS: L929 cell line, 10μM, second assay
# OD490 values, Mean listing for each entry below
// no unit, no text: just the number

Some entries whose results are on file:
COMPOUND: CCOC(=O)c1[nH]c(C2NC(=O)NC(C)=C2C(=O)Nc2ccc(Cl)cc2)c(C(=O)OCC)c1C (stereo not drawn)
OD490 values, Mean: 1.6485
//
COMPOUND: CCOC(=O)c1c(C2NC(=O)NC(C)=C2C(=O)Nc2ccccc2OC)[nH]c(C(=O)OC)c1C (stereo not drawn) [D1]
OD490 values, Mean: 1.7648
//
COMPOUND: CCOc1ccccc1C1NC(=S)NC(C)=C1C(=O)Nc1ccc(Cl)cc1 (stereo not drawn)
OD490 values, Mean: 1.6826

Task: Please give the measured OD490 values, Mean for this compound: COC(=O)c1[nH]c(C2NC(=S)NC(C)=C2C(=O)c2ccccc2)c(C(=O)OC)c1C (stereo not drawn)
Output: 1.4237

Task: Please give the measured OD490 values, Mean for this compound: CCOC(=O)c1[nH]c(C2NC(=O)NC(C)=C2C(=O)Nc2ccccc2C)c(C(=O)OC)c1C (stereo not drawn)
Output: 1.6098

Task: Please give the measured OD490 values, Mean for this compound: CCOC(=O)c1[nH]c(C2NC(=S)NC(C)=C2C(=O)OC)c(C(=O)OCC)c1C (stereo not drawn)
Output: 1.4056

---

# OD490 Mean listing for each entry below
System: Caco-2 cell line
PROCEDURE TEXT: Cytotoxicity MTS assay, Caco-2 cell line
Type: cell-based
RUN PARAMETERS: 1μM; third assay; Caco-2 cell line
// no unit, no text: just the number

Some entries whose results are on file:
COMPOUND: CCOC(=O)c1[nH]c(C2NC(=O)NC(C)=C2C(=O)Nc2ccccc2OC)c(C(=O)OC)c1C (stereo not shown)
SYSTEM UNDER TEST: Caco-2 cell line
OD490 Mean: 0.7014

COMPOUND: CCOC(=O)c1c(C2NC(=O)NC(C)=C2C(=O)Nc2ccccc2C)[nH]c(C(=O)OC)c1C (stereo not shown) [D2]
SYSTEM UNDER TEST: Caco-2 cell line
OD490 Mean: 0.6746

COMPOUND: CCOc1ccccc1C1NC(=S)NC(C)=C1C(=O)Nc1ccc(Cl)cc1 (stereo not shown)
SYSTEM UNDER TEST: Caco-2 cell line
OD490 Mean: 0.6578

COMPOUND: CCOC(=O)c1[nH]c(C2NC(=O)NC(C)=C2C(=O)Nc2ccccc2C)c(C(=O)OC)c1C (stereo not shown)
SYSTEM UNDER TEST: Caco-2 cell line
OD490 Mean: 0.6218

COMPOUND: CCOC(=O)c1c(C2NC(=O)NC(C)=C2C(=O)Nc2ccccc2)[nH]c(C(=O)OC)c1C (stereo not shown)
SYSTEM UNDER TEST: Caco-2 cell line
OD490 Mean: 0.6367

Task: Please give the measured OD490 Mean for this compound: CCOC(=O)c1c(C2NC(=O)NC(C)=C2C(=O)Nc2ccccc2OC)[nH]c(C(=O)OC)c1C (stereo not shown) [D1]
Output: 0.6182

Task: Please give the measured OD490 Mean for this compound: COC(=O)c1[nH]c(C2NC(=S)NC(C)=C2C(=O)c2ccccc2)c(C(=O)OC)c1C (stereo not shown)
Output: 0.6246

Task: Please give the measured OD490 Mean for this compound: CCOC(=O)c1[nH]c(C2NC(=O)NC(C)=C2C(=O)Nc2ccc(Cl)cc2)c(C(=O)OCC)c1C (stereo not shown)
Output: 0.5540

Task: Please give the measured OD490 Mean for this compound: CCOC(=O)C1=C(C)NC(=S)NC1c1cccc(O)c1 (stereo not shown) [Monastrol, monastrol, reference compound]
Output: 0.6466

Task: Please give the measured OD490 Mean for this compound: CCOC(=O)c1[nH]c(C2NC(=S)NC(C)=C2C(=O)OC)c(C(=O)OCC)c1C (stereo not shown)
Output: 0.6229

---

System: Caco-2 cell line
PROCEDURE TEXT: Cytotoxicity MTS assay, Caco-2 cell line
Type: cell-based
RUN PARAMETERS: 0.5μM; second assay; Caco-2 cell line
Description: The positive compounds (IC50 < 100 μM) obtained from the primary Eg5 motor protein ATPase assay were tested for antiproliferative activity in vitro against Caco-2 cell line, Hela cell line, L929 cell line and T24 cell line by performing MTS assay. Cells were introduced into 96-well plates at a density of 1000 cells per well. After 24 h incubation, the cells were exposed with compounds at final concentrations ranging from 0.5 to 100 µM for 24 h. […]
# OD490 Well 2 listing for each entry below
// no unit, no text: just the number

COMPOUND: CCOC(=O)c1c(C2NC(=O)NC(C)=C2C(=O)Nc2ccccc2)[nH]c(C(=O)OC)c1C (stereo not shown) [D10]
OD490 Well 2: 0.6234

COMPOUND: CCOC(=O)c1c(C2NC(=O)NC(C)=C2C(=O)Nc2ccccc2OC)[nH]c(C(=O)OC)c1C (stereo not shown) [D1]
OD490 Well 2: 0.6324

COMPOUND: CCOC(=O)c1[nH]c(C2NC(=O)NC(C)=C2C(=O)Nc2ccc(Cl)cc2)c(C(=O)OCC)c1C (stereo not shown) [D7]
OD490 Well 2: 0.6303

COMPOUND: CCOC(=O)c1c(C2NC(=O)NC(C)=C2C(=O)Nc2ccccc2C)[nH]c(C(=O)OC)c1C (stereo not shown) [D2]
OD490 Well 2: 0.7002

Task: Please give the measured OD490 Well 2 for this compound: CCOc1ccccc1C1NC(=S)NC(C)=C1C(=O)Nc1ccc(Cl)cc1 (stereo not shown) [C9]
Output: 0.6217

Task: Please give the measured OD490 Well 2 for this compound: CCOC(=O)C1=C(C)NC(=S)NC1c1cccc(O)c1 (stereo not shown) [Monastrol, monastrol, reference compound]
Output: 0.6567

Task: Please give the measured OD490 Well 2 for this compound: CCOC(=O)c1[nH]c(C2NC(=O)NC(C)=C2C(=O)Nc2ccccc2C)c(C(=O)OC)c1C (stereo not shown) [D4]
Output: 0.6416

Task: Please give the measured OD490 Well 2 for this compound: CCOC(=O)c1[nH]c(C2NC(=S)NC(C)=C2C(=O)OC)c(C(=O)OCC)c1C (stereo not shown) [D12]
Output: 0.7838

Task: Please give the measured OD490 Well 2 for this compound: COC(=O)c1[nH]c(C2NC(=S)NC(C)=C2C(=O)c2ccccc2)c(C(=O)OC)c1C (stereo not shown) [D14]
Output: 0.6879

Task: Please give the measured OD490 Well 2 for this compound: CCOC(=O)c1[nH]c(C2NC(=O)NC(C)=C2C(=O)Nc2ccccc2OC)c(C(=O)OC)c1C (stereo not shown) [D3]
Output: 0.7863
